# Test system: NCI-H226 lung
# method description: NCI-60 one-dose screen, 48 h
# condition: 10 µM unless noted
Compounds without any hit were thinned out: in the full panel of roughly 83,000, 20% have a hit. Activity calls are given as the source filed them. How the source made its calls: active means growth percent below 10; inactive means the rest.
Outcomes: active, inactive

>  <molecule>
Cc1ccc(-c2nc(N3CCN(C(=O)Nc4ccc(Cl)c(C(F)(F)F)c4)CC3)c3ccccc3n2)cc1

>  <label>
inactive

$$$$
>  <molecule>
N#Cc1c(Nc2cccc(Cl)c2)sc(C(=O)c2cc3cc(Cl)ccc3o2)c1N

>  <label>
inactive

$$$$
>  <molecule>
O=c1c2cc(F)ccc2sc2c(NCCN3CCOCC3)nc3ccccc3c12

>  <label>
inactive

$$$$
>  <molecule>
C#Cc1cccc(NC(=O)Nc2ccccc2NC(=O)CCl)c1

>  <label>
active

$$$$
>  <molecule>
Cc1cccc2c3c(sc12)C(c1ccc(F)cc1)C(C#N)=C(N)O3 (stereo not given)

>  <label>
inactive

$$$$
>  <molecule>
CCCCn1c(=O)c(-c2cc(-c3ccc(Cl)cc3)nc(-c3ccc(Cl)cc3)c2)cc2ccc(Cl)cc21

>  <label>
inactive

$$$$
>  <molecule>
Cc1nc2ccccc2c(/C=C/c2ccc(Cl)cc2)c1C(=O)/C=C/c1ccc(C(F)(F)F)cc1

>  <label>
active

$$$$
>  <molecule>
COc1ccccc1/C=C1\Oc2cc(OCCN3CCC(Cc4ccccc4)CC3)ccc2C1=O

>  <label>
inactive

$$$$
>  <molecule>
CCCCCCNC(=O)Oc1ccc(/C(=C(\C)c2ccc(Cl)cc2)c2ccc(OCCN3CCCCC3)cc2)cc1

>  <label>
inactive

$$$$
>  <molecule>
Cc1ccc(-c2cnc3sc(C(=O)NCCc4ccccc4)c(C)n23)cc1

>  <label>
inactive

$$$$

* * *

// growth lookup, one value per entry
# Tested on: SF-268 CNS
# method description: NCI-60 one-dose screen, 48 h (100 = growth as untreated, 0 = no growth, -100 = all killed)
# condition: 10 µM unless noted
The panel holds about 83,000 compounds, 20% with a hit somewhere; the sample as a whole holds those more often. Activity calls are given as the source filed them. The calls were made as follows: active = growth percent below 10; inactive = the rest.
assay metric: growth

>  <input smiles>
CCc1cccc2c1S/C(=C/c1ccc(OC)cc1)C2=O

>  <tgt>
SF-268 CNS

>  <assay metric>
growth

>  <assay value>
64.5% (inactive)

$$$$
>  <input smiles>
C#Cc1cccc(NC(=O)Nc2ccccc2NC(=O)CCl)c1

>  <tgt>
SF-268 CNS

>  <assay metric>
growth

>  <assay value>
-17.4% [8.25 µM] (active)

$$$$
>  <input smiles>
CCOC(=O)NCCc1ccccc1

>  <tgt>
SF-268 CNS

>  <assay metric>
growth

>  <assay value>
114% (inactive)

$$$$
>  <input smiles>
CCOC(=O)Cn1c(=O)c2c(c3ccccc3n2C)n2nnc(-c3ccccc3)c12

>  <tgt>
SF-268 CNS

>  <assay metric>
growth

>  <assay value>
95.2% (inactive)

$$$$
>  <input smiles>
CC[C@H](C)C(=O)O[C@H]1CCC=C2C=C[C@H](C)[C@H](CC[C@@H]3CC=CC(=O)O3)[C@H]21

>  <tgt>
SF-268 CNS

>  <assay metric>
growth

>  <assay value>
99.2% (inactive)

$$$$
>  <input smiles>
COc1cc(C(=O)c2cnc(-c3c[nH]c4cccc(C)c34)[nH]2)cc(OC)c1OC

>  <tgt>
SF-268 CNS

>  <assay metric>
growth

>  <assay value>
18.9% (inactive)

$$$$
>  <input smiles>
O=C(N/N=C/[C@H](O)[C@H](O)[C@H](O)CO)c1ccc(NC(=O)c2cccnc2)cc1

>  <tgt>
SF-268 CNS

>  <assay metric>
growth

>  <assay value>
98.6% (inactive)

$$$$
>  <input smiles>
CCCCCCN(CCCCCC)c1ccc(/C=C2/SC(=O)NC2=O)c(C)c1

>  <tgt>
SF-268 CNS

>  <assay metric>
growth

>  <assay value>
89.5% (inactive)

$$$$
>  <input smiles>
COc1cccc(-c2nn(-c3ccccc3)cc2-c2ccnc(N3CCOCC3)c2)c1

>  <tgt>
SF-268 CNS

>  <assay metric>
growth

>  <assay value>
88.8% (inactive)

$$$$
>  <input smiles>
CCOC(=O)Nc1ccc(-c2nc(-c3cccc(OCCN4CCOCC4)c3)c(-c3ccnc(Br)c3)[nH]2)cc1

>  <tgt>
SF-268 CNS

>  <assay metric>
growth

>  <assay value>
62.3% (inactive)

$$$$

The values you see were collected from PubChem BioAssay (NCI).
